Target: T1, native human ApoC3 (human, UniProt P02656 21-99, biotinylated in the captured-antigen assays (Tables 6 and 8); sites not stated)
T1 construct: also called nhuApoC3; native huApoC3
T1 sequence (P02656 21-99): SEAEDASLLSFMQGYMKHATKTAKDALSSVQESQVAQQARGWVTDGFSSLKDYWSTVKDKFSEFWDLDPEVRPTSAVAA
Assay: SPR, IgG captured via anti-human Fc, ApoC3 analyte 400 nM
Overview of reported log10 of Kd across a group of binders:
property: log10 of Kd (log10 of the value in nM)

INSERT INTO assay_data (binder, property, obs_value) VALUES
  ('29G11 IgG (antibody, V domains shown) VH: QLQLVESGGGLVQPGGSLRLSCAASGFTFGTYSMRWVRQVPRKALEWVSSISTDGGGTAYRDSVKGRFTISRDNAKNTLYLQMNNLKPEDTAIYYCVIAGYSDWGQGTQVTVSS VL: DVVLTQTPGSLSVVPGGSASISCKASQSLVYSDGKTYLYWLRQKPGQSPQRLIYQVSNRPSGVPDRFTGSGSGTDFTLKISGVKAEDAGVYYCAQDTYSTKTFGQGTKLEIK', 'log10 of Kd', 0.76),
  ('29A05 IgG (antibody, V domains shown) VH: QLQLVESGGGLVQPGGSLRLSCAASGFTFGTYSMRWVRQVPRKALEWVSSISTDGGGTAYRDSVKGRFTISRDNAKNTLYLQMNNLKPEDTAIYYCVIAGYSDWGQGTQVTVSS VL: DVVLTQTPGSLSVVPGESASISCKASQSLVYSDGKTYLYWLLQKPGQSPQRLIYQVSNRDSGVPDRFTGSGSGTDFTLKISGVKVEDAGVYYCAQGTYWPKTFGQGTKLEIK', 'log10 of Kd', 0.87),
  ('29F10 IgG (antibody, V domains shown) VH: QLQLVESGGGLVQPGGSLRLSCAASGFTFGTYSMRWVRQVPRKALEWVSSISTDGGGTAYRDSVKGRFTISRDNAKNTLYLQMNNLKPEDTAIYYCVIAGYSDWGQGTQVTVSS VL: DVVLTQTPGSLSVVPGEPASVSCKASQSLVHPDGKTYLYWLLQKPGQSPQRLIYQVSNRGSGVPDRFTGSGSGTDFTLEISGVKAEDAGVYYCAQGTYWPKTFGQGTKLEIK', 'log10 of Kd', 0.26),
  ('5E5 WT IgG (antibody, V domains shown, Full-length IgG captured by an anti-human Fc antibody) VH: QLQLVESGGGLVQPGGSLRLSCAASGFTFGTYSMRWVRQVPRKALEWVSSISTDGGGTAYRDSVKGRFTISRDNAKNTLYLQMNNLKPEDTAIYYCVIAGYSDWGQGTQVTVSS VL: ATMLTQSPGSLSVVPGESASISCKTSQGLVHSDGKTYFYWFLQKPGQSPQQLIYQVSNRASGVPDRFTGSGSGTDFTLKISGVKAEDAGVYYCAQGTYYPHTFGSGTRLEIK', 'log10 of Kd', -0.13),
  ('29B03 IgG (antibody, V domains shown) VH: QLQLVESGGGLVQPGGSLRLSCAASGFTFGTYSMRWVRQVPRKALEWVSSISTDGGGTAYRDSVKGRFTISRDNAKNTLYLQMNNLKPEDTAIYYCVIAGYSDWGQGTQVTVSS VL: DVVLTQTPGSLSVVPGESASISCKAGQNLVHPDGKTYLYWLLQKPGQSPQRLIYQVSNRDSGVPDRFTGSGSGTDFTLKISGVKVEDAGVYYCAQGTYWPKTFGQGTKLEIK', 'log10 of Kd', -0.40),
  ('29A06 IgG (antibody, V domains shown) VH: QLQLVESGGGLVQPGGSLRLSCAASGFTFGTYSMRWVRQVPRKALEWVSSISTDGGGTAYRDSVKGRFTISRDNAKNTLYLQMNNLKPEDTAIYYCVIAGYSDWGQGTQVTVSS VL: DVVLTQTPGSLSVVPGESASISCKASQNLVHSNGKTYLYWLLQKPGQSPQRLIYQVSNRGSEVPDRFTGSGSGTDFTLKISGVKAEDAGVYYCAQGTYWPKTFGQGTKLEIK', 'log10 of Kd', -0.01),
  ('29G02 IgG (antibody, V domains shown) VH: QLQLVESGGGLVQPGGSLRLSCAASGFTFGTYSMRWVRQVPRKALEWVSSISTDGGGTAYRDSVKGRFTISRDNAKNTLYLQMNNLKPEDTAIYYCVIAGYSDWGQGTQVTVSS VL: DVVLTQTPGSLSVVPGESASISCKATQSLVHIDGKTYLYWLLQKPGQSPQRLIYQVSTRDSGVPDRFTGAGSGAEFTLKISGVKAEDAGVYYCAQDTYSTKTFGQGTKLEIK', 'log10 of Kd', 0.48);
